Biological target: CDK2/Cyclin E complex (UniProt P24941 1-298; P24864 1-410)
Experiment: cell-based or functional assay
Ends that are not written are not given here.
Lab note: anything with % Inhibition, cyclin E/CDK2 kinase below 70% is marked yes; values at 70% or higher are marked no.

{"binder": "DFYHSARRLIFS-NH2 [DFYHSARRLIFS-NH2]", "category": "no"}
{"binder": "YHSKRR-NH2 [YHSKRR-NH2]", "category": "yes"}
{"binder": "FYHSKR-NH2 [FYHSKR-NH2]", "category": "yes"}
{"binder": "DFAHSKRRLIFS-NH2 [DFAHSKRRLIFS-NH2]", "category": "no"}
{"binder": "FYHSKRRL-NH2 [FYHSKRRL-NH2]", "category": "yes"}
{"binder": "TDFYHSKRRLIF-NH2 [p21 (148-159) TDFYHSKRRLIF-NH2]", "category": "no"}
{"binder": "TSMTDFYHSKRR-NH2 [TSMTDFYHSKRR-NH2]", "category": "yes"}
